Sourced from ChEMBL document CHEMBL4814021

# MEASUREMENT NOTES: Redox potential of compound in phosphate buffer at pH 7.2 by cyclic voltammetry
# Format: physicochemical
REPORTED METRIC: Activity (V)
Give the number; V is assumed, so skip it.

Sample answers from the record:
> print(dat)
                                     smi  reported.metric  reported.value
1   O=C(Oc1ccc2c(c1)C(=O)C=CC2=O)c1cccs1         Activity          -0.166
2               O=C1C=CC(=O)c2c(O)cccc21         Activity          -0.204
3     O=C(Oc1cccc2c1C(=O)C=CC2=O)c1ccco1         Activity          -0.213
4      O=C1C=CC(=O)c2c(OCc3ccccc3)cccc21         Activity           -0.16
5   O=C(Oc1ccc2c(c1)C(=O)C=CC2=O)c1ccco1         Activity           -0.16
6  O=C(Oc1ccc2c(c1)C(=O)C=CC2=O)c1ccccc1         Activity          -0.174

Q) Item under review: `COc1cccc2c1C(=O)C=CC2=O` . Reported Activity?
A) -0.165

Q) Queued: `CC(=O)Oc1ccc2c(c1)C(=O)C=CC2=O`
A) -0.18

Q) Queued: `O=C(Oc1cccc2c1C(=O)C=CC2=O)c1ccccc1`
A) -0.208

Q) Queued: `O=C1C=C(O)C(=O)c2ccccc21`
A) -0.431

Q) Queued: `C/C=C/C(=O)OC1=CC(=O)c2ccccc2C1=O`
A) -0.413

Q) Queued: `CCCCOC1=CC(=O)c2ccccc2C1=O`
A) -0.305

Q) Queued: `O=C1C=CC(=O)c2cc(O)ccc21`
A) -0.192

---

# Tested on: KB
# MEASUREMENT NOTES: Cytotoxicity against human KB cells
# Type: functional, cell-based
REPORTED METRIC: pIC50
// pIC50 here means minus log10 of the molar concentration (mol/L)

Sample answers from the record:
> print(dat)
                                  smi  reported.value
1  O=C(Oc1cccc2c1C(=O)C=CC2=O)c1cccs1            5.21
2          CCOc1ccc2c(c1)C(=O)C=CC2=O            4.67
3            CCOC1=CC(=O)c2ccccc2C1=O            4.77

Q) Item under review: `Cc1ccc(S(=O)(=O)Oc2ccc3c(c2)C(=O)C=CC3=O)cc1` . Reported pIC50?
A) 4.79

Q) Queued: `CS(=O)(=O)OC1=CC(=O)c2ccccc2C1=O`
A) 5.14

Q) Queued: `O=C(OC1=CC(=O)c2ccccc2C1=O)c1cccs1`
A) 4.38

Q) Queued: `O=C1C=C(O)C(=O)c2ccccc21`
A) 3.98

Q) Queued: `COC1=CC(=O)c2ccccc2C1=O`
A) 4.76

---

Measured log10(IC50) by item
# Test system: KB
# MEASUREMENT NOTES: Cytotoxicity against human KB cells
# Format: functional, cell-based
Kindly note that the scale is log10 and the underlying IC50 is in µM.

Sample answers from the record:
> print(dat)
                                    smi  reported.value
1  O=C(Oc1ccc2c(c1)C(=O)C=CC2=O)c1ccco1            1.20
2        CC(=O)Oc1ccc2c(c1)C(=O)C=CC2=O            1.34
3            CCCCOC1=CC(=O)c2ccccc2C1=O            1.43

Q) Item under review: `O=C(Oc1cccc2c1C(=O)C=CC2=O)c1ccccc1` . Reported log10(IC50)?
A) 0.81

Q) Queued: `O=C1C=CC(=O)c2c(O)cccc21`
A) 0.82

Q) Queued: `CC(=O)Oc1cccc2c1C(=O)C=CC2=O`
A) 0.14

Q) Queued: `CC(=O)OC1=CC(=O)c2ccccc2C1=O`
A) 1.59

---

# Tested on: HeLa
# MEASUREMENT NOTES: Cytotoxicity against human HeLa cells
# Assay type: functional, cell-based
Measured pIC50 by item
// pIC50 here means minus log10 of the molar concentration (mol/L)

Sample answers from the record:
> print(dat)
                     molecule  reported.value
1  CCOc1ccc2c(c1)C(=O)C=CC2=O            4.60
2    O=C1C=CC(=O)c2cc(O)ccc21            5.15

Q) Item under review: O=C1C=CC(=O)c2c(O)cccc21 [JUGLONE] . Reported pIC50?
A) 4.80

Q) Queued: `CCOC1=CC(=O)c2ccccc2C1=O`
A) 4.62

Q) Queued: `CCCCOC1=CC(=O)c2ccccc2C1=O`
A) 4.45

Q) Queued: `CC(=O)OC1=CC(=O)c2ccccc2C1=O`
A) 4.21

Q) Queued: `O=C(Oc1cccc2c1C(=O)C=CC2=O)c1cccs1`
A) 5.28

Q) Queued: COC1=CC(=O)c2ccccc2C1=O [2-Methoxy-1,4-naphthoquinone]
A) 4.53

Q) Queued: `O=C(OC1=CC(=O)c2ccccc2C1=O)c1cccs1`
A) 4.45

Q) Queued: `CC(=O)Oc1cccc2c1C(=O)C=CC2=O`
A) 5.19

Q) Queued: `Cc1ccc(S(=O)(=O)Oc2ccc3c(c2)C(=O)C=CC3=O)cc1`
A) 4.82

Q) Queued: `COc1ccc2c(c1)C(=O)C=CC2=O`
A) 4.64

Q) Queued: `COc1cccc2c1C(=O)C=CC2=O`
A) 4.66

Q) Queued: `CC(=O)Oc1ccc2c(c1)C(=O)C=CC2=O`
A) 4.56

---

Measured Activity by item
# MEASUREMENT NOTES: Redox potential of compound in phosphate buffer at pH 7.2 by cyclic voltammetry
# Assay type: physicochemical
Note to self: number, then unit, no commentary.

Sample answers from the record:
> print(dat)
                                        smi  reported.value
1                 CCCOC1=CC(=O)c2ccccc2C1=O         -0.32 V
2         O=C1C=CC(=O)c2cc(OCc3ccccc3)ccc21        -0.207 V
3          CS(=O)(=O)Oc1cccc2c1C(=O)C=CC2=O        -0.158 V
4                  CCOC1=CC(=O)c2ccccc2C1=O        -0.304 V
5  Cc1ccc(S(=O)(=O)OC2=CC(=O)c3ccccc3C2=O)cc1        -0.165 V
6                   COC1=CC(=O)c2ccccc2C1=O        -0.305 V
7        O=C(OC1=CC(=O)c2ccccc2C1=O)c1cccs1        -0.413 V
8              CC(=O)OC1=CC(=O)c2ccccc2C1=O        -0.416 V

Q) Item under review: `O=C(OC1=CC(=O)c2ccccc2C1=O)c1ccccc1` . Reported Activity?
A) -0.368 V

Q) Queued: `CCOc1ccc2c(c1)C(=O)C=CC2=O`
A) -0.197 V

Q) Queued: `Cc1ccc(S(=O)(=O)Oc2ccc3c(c2)C(=O)C=CC3=O)cc1`
A) -0.154 V

Q) Queued: `CC1=CC(=O)c2c(O)cccc2C1=O`
A) -0.346 V

Q) Queued: `C=CCOc1ccc2c(c1)C(=O)C=CC2=O`
A) -0.194 V

---

Measured pIC50 by item
# System: HeLa
# MEASUREMENT NOTES: Cytotoxicity against human HeLa cells
# Type: functional, cell-based
// pIC50 here means minus log10 of the molar concentration (mol/L)

Sample answers from the record:
> print(dat)
                                   smi  reported.metric  reported.value
1             O=C1C=C(O)C(=O)c2ccccc21            pIC50            4.15
2  O=C(OC1=CC(=O)c2ccccc2C1=O)c1ccccc1            pIC50            4.26

Q) Item under review: `CS(=O)(=O)OC1=CC(=O)c2ccccc2C1=O` . Reported pIC50?
A) 5.12

Q) Queued: `O=C(Oc1ccc2c(c1)C(=O)C=CC2=O)c1ccccc1`
A) 4.72

Q) Queued: `C/C=C/C(=O)OC1=CC(=O)c2ccccc2C1=O`
A) 4.42

Q) Queued: `O=C(Oc1ccc2c(c1)C(=O)C=CC2=O)c1ccco1`
A) 4.77

---

Measured IC50 by item
# Test system: KB
# MEASUREMENT NOTES: Cytotoxicity against human KB cells
# Format: functional, cell-based

> print(dat)
                                compound  reported.value
1  O=C(Oc1ccc2c(c1)C(=O)C=CC2=O)c1ccccc1         12.1 µM
2     CS(=O)(=O)Oc1ccc2c(c1)C(=O)C=CC2=O         11.6 µM
3                COc1cccc2c1C(=O)C=CC2=O         23.8 µM
4              COc1ccc2c(c1)C(=O)C=CC2=O         33.9 µM
5           C=CCOc1ccc2c(c1)C(=O)C=CC2=O         10.2 µM

Q) Tell me reported IC50 for `Cc1ccc(S(=O)(=O)Oc2cccc3c2C(=O)C=CC3=O)cc1` , tested with KB.
A) 10.7 µM

Q) Queued: `O=C1C=CC(=O)c2cc(O)ccc21`
A) 13.3 µM

Q) Queued: CC1=CC(=O)c2c(O)cccc2C1=O [PLUMBAGIN]
A) 9.83 µM

Q) Queued: `O=C1C=CC(=O)c2c(OCc3ccccc3)cccc21`
A) 8.48 µM

Q) Queued: `Cc1ccc(S(=O)(=O)OC2=CC(=O)c3ccccc3C2=O)cc1`
A) 18.8 µM

Q) Queued: `CCCOC1=CC(=O)c2ccccc2C1=O`
A) 49.4 µM

Q) Queued: `O=C(Oc1ccc2c(c1)C(=O)C=CC2=O)c1cccs1`
A) 18.3 µM

Q) Queued: `O=C(OC1=CC(=O)c2ccccc2C1=O)c1ccccc1`
A) 36.9 µM
